// data source = patent US9174951B2

System: DU-145 cells
Assay: MTT cell viability assay, DU-145
Format: cell-based
Conditions: Homo sapiens, 72 h, 10% FBS
pIC50: −log10 of the molar value.
MEASURED ENDPOINT: pIC50

(Q) Which pIC50 value is on record for CC(CN1C(=O)S/C(=C\c2ccc(O)c(C(F)(F)F)c2)C1=O)(CC(F)(F)F)CC(F)(F)F [Compound 30] ?
(A) 5.77 to 5.82

----------
System: BxPC3 cells
Assay: MTT cell viability assay, BxPC3
Assay type: cell-based
Settings: Homo sapiens, BXPC-3, 72 h, 10% FBS
pIC50: −log10 of the molar value.
MEASURED ENDPOINT: pIC50

(Q) Endpoint output: pIC50 of CC(CN1C(=O)S/C(=C\c2ccc(O)c(C(F)(F)F)c2)C1=O)(CC(F)(F)F)CC(F)(F)F . Value?
(A) ~5.12

----------
Molecular target: GLUT4 (Homo sapiens)
Construct: The full length GLUT1, GLUT4, and GLUT9 ORF cDNA clones were purchased from Addgene
Sequence (P14672 whole entry, species assumed): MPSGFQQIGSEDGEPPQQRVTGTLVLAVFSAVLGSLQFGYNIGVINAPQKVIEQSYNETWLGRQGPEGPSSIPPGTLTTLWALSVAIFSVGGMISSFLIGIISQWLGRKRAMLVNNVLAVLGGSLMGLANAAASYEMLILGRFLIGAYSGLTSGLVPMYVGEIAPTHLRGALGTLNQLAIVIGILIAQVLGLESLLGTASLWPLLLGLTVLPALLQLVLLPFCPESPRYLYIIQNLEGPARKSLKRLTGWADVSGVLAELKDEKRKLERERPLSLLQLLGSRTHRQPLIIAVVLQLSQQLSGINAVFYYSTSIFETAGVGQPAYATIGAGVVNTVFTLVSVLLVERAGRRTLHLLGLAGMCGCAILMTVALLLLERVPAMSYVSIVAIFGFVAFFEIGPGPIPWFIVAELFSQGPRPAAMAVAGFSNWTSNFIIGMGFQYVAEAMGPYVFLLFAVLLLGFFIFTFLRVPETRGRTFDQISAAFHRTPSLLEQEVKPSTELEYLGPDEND
Test: [3H]2-DG uptake into LNCaP cells overexpressing GLUT4
Conditions: LNCaP cells overexpressing GLUT4; read-out: IC50 for GLUT4-mediated [3H]2-DG uptake
pIC50: −log10 of the molar value.
MEASURED ENDPOINT: pIC50

(Q) Bench note: what pIC50 did CC(CN1C(=O)S/C(=C\c2ccc(O)c(C(F)(F)F)c2)C1=O)(CC(F)(F)F)CC(F)(F)F [Compound 30] show?
(A) ≤ 5.30

----------
System: AsPC1 cells
Test: MTT cell viability assay, AsPC1
Type: cell-based
Conditions: Homo sapiens, 72 h, 10% FBS
MEASURED ENDPOINT: IC50

(Q) Look up IC50 for this compound: CC(CN1C(=O)S/C(=C\c2ccc(O)c(C(F)(F)F)c2)C1=O)(CC(F)(F)F)CC(F)(F)F
(A) ~5 µM

----------
Tested on: SKBR3 cells
Assay: MTT cell viability assay, SKBR3
Type: cell-based
Settings: Homo sapiens, SK-BR-3, 72 h, 10% FBS
MEASURED ENDPOINT: IC50 (nM)
Value expressed in nM; do not type the unit.

(Q) What reported IC50 corresponds to CC(CN1C(=O)S/C(=C\c2ccc(O)c(C(F)(F)F)c2)C1=O)(CC(F)(F)F)CC(F)(F)F on SKBR3 cells?
(A) 1600

----------
Biological target: GLUT1 (Homo sapiens, UniProt P11166)
Construct: The full length GLUT1, GLUT4, and GLUT9 ORF cDNA clones were purchased from Addgene; EGFP (from the pEGFP-N2 vector)
Sequence (P11166 whole entry): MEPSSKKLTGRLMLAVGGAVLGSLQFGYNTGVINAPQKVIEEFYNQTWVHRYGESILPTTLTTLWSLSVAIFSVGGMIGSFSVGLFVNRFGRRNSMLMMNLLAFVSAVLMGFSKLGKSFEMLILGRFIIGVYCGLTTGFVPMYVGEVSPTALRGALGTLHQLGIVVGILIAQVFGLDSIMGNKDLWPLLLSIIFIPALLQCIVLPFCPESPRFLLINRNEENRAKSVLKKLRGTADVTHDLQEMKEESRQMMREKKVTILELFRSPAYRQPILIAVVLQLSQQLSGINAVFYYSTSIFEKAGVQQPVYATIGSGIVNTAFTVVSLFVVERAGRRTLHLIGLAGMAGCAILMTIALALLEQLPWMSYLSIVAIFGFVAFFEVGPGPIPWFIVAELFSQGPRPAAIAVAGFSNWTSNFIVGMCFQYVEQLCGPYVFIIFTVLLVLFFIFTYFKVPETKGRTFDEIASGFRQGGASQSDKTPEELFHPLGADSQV
Assay: [3H]2-DG uptake into LNCaP cells overexpressing GLUT1
Settings: LNCaP cells overexpressing GLUT1; read-out: IC50 in inhibiting GLUT1-mediated [3H]2-DG uptake
Entries and their IC50
Kindly answer with a numeric value in µM, unit omitted.

• CCC(CC)CN1C(=O)S/C(=C\c2ccc(O)c(C(F)(F)F)c2)C1=O [Compound 5] = 5

(Q) Look up IC50: CC(CN1C(=O)S/C(=C\c2ccc(O)c(C(F)(F)F)c2)C1=O)(CC(F)(F)F)CC(F)(F)F [Compound 30]
(A) 2
